Cited source: patent US20240043427A1

Target: CD73 (Homo sapiens (Human), UniProt P21589)
Sequence (P21589 27-574): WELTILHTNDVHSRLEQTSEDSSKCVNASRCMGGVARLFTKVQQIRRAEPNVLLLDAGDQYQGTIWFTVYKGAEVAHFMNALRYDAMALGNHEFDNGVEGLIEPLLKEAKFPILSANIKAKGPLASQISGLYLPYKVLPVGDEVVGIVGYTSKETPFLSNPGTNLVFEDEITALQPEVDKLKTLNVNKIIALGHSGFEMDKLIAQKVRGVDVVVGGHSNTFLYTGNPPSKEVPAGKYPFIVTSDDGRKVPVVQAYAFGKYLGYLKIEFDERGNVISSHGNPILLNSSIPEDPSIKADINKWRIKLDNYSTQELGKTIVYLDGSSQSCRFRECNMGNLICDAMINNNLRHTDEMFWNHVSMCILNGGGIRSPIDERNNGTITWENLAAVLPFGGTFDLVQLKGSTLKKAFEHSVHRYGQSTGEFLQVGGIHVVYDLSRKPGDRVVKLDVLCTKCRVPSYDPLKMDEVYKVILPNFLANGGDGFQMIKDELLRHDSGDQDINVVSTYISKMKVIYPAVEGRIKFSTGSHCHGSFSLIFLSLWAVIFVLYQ
Experiment: MDA-MB-231 Cell Based CD73 Activity Assay (DMEM)
Conditions: MDA-MB-231-GFP cells, DMEM medium with 10% human plasma, 200 uM AMP
outcomeMeasure: EC50 (nM)
# value in nM; strip the unit string

Here's what some known entries look like.
>>> df
                                   compound  outcomemeasure  unitinfo  measurednumber
0  O=c1[nH]cc(-c2cc(N3CC(OCC(F)(F)F)C3)c3nccn3n2)c(=O)[nH]1            EC50        nM             718
1  O=c1[nH]cc(-c2cc(N3CC(F)(COc4ccc(C(F)(F)F)cn4)C3)c3nccn3n2)c(=O)[nH]1            EC50        nM              66
2  O=c1[nH]cc(-c2cc([C@H]3C[C@@H]3c3ccc(Cl)cn3)c3nccn3n2)c(=O)[nH]1 [Example 585]            EC50        nM             1.9

Now consider a different compound.
Ask | Would you mind telling me what EC50 value was observed for `O=c1[nH]cc(-c2cc([C@H]3C[C@@H]3c3cc(Cl)c4cnn(CC(F)(F)F)c4c3)c3nccn3n2)c(=O)[nH]1` ?
Reply | 0.38
